assay: Quantitative High-Throughput drug screen in 47 multiple myeloma cell lines against the NCATS MIPE library collection: AMO1_DSMZ cell viability assay (AID 1918927; note: nearly all actives have a fitted effect of over 30% in size); conditions: AMO1 myeloma cells viability, CellTiter-Glo ATP luminescence, 48 h; series mostly up to 45.8 µM
Results filed as inconclusive are left out. Calls of active or inactive are those of the source. Calls come from the whole dose curve; as a rule, active = well fitted cell-killing curve with a large enough effect; inconclusive = small, poorly fitted or top-dose-only effect, or effect the other way; inactive = no such curve, though single readings can be large or run the other way.
Permitted responses: t for active, f for inactive

Previously resolved entries follow.
> print(dat)
                                   compound  class
1  O=C(O)[C@@H](c1ccc(OCc2ccc3ccccc3n2)cc1)C1CCCC1      f
2  COc1ccc2c3n(c(=NC(=O)c4cccnc4)nc2c1OC)CCN3      t
3                            NC(=O)c1cnccn1      f
4  OC(CN1CCC(Cc2ccc(F)cc2)CC1)c1ccc(Cl)cc1 (stereo not drawn)      f
5  NC(=O)C1CCCc2c1[nH]c1ccc(Cl)cc21 (stereo not drawn)      t

What call does the record list for `CCN(c1ccccc1)c1cc(NC)[n+](C)c(C)n1` ?
t

What call does the record list for `CCCCCCCc1ccc(CCc2cccc(O)c2C(=O)O)cc1` ?
f

What call does the record list for `O=c1ncn2nc(Sc3ccc(F)cc3F)ccc2c1-c1c(Cl)cccc1Cl` ?
t

====

Experiment: qHTS drug screen for cell cycle checkpoint inhibitors in PARPi-resistant BRCA-mutant ovarian cancer cell lines. (AID 1963452)
Conditions: PEO1/OlaR viability, CellTiter-Glo luminescence, 96 h; measured here: PEO4 Z-AUC; stronger effect = lower value
Description: Women's Malignancies Branch, Center for Cancer Research (CCR), National Cancer Institute (NCI), National Institutes of Health (NIH), Bethesda, MD Poly (ADP-ribose) polymerase inhibitors (PARPis) have changed the treatment paradigm in breast cancer gene (BRCA) - mutant high-grade serous ovarian carcinoma (HGSC). […] 6; Detection; Luminescence, PHERAstar (BMG Labtech) plate reader. […] 6. Luminescence readings were taken using PHERAstar (BMG Labtech). […]
A collection of compounds and their measured Z-AUC
In your answer, state the number alone without any accompanying words.

Look over these answered cases.
> print(dat)
                                    compound  endpointresult
 1  Cc1cc2c(C(C)C)c(O)c(O)c(C=O)c2c(O)c1-c1c(C)cc2c(C(C)C)c(O)c(O)c(C=O)c2c1O           0.413
 2  COc1ccccc1[C@H](c1cccc2ccccc12)[C@@](C)(C#N)C(=O)N1CCC(c2cccc(C(F)(F)F)c2)CC1            1.29
 3  Cc1cnc(Nc2ccc(OCCN3CCCC3)cc2)nc1Nc1cccc(S(=O)(=O)NC(C)(C)C)c1           -1.56
 4  CN(C)c1ccc(Nc2nc(N)n(C(=O)c3c(F)cccc3F)n2)cc1           0.398
 5  CCn1cc(C(=O)O)c(=O)c2cc(F)c(N3CCNC(C)C3)c(F)c21 (stereo not given)          -0.581
 6  COc1c(Cl)cc2c([nH]c3cnccc32)c1NC(=O)c1cccnc1C           0.857
 7  Nc1nc2[nH]cc(CCc3ccc(C(=O)N[C@@H](CCC(=O)O)C(=O)O)cc3)c2c(=O)[nH]1            1.26
 8      N#Cc1ccc(C(c2ccc(C#N)cc2)n2cncn2)cc1            1.79
 9  CCCS(=O)(=O)Nc1ccc(F)c(C(=O)c2c[nH]c3ncc(-c4ccc(Cl)cc4)cc23)c1F          -0.427
10                           CCCC(CCC)C(=O)O           0.624

Request the reported Z-AUC associated with `Oc1cccc(-c2nc(N3CCOCC3)c3oc4ncccc4c3n2)c1`
-0.797

Request the reported Z-AUC associated with `Cc1ccc(NC(=O)c2cccc(C(C)(C)C#N)c2)cc1Nc1ccc2ncn(C)c(=O)c2c1`
0.24

Request the reported Z-AUC associated with `CCCc1nn(C)c2c(=O)[nH]c(-c3cc(S(=O)(=O)N4CCN(C)CC4)ccc3OCC)nc12`
0.991

Origin of measurements: PubChem BioAssay (NCATS)
